- target: Bifunctional purine biosynthesis protein ATIC (Homo sapiens, UniProt P31939)
- Sequence (P31939 whole entry): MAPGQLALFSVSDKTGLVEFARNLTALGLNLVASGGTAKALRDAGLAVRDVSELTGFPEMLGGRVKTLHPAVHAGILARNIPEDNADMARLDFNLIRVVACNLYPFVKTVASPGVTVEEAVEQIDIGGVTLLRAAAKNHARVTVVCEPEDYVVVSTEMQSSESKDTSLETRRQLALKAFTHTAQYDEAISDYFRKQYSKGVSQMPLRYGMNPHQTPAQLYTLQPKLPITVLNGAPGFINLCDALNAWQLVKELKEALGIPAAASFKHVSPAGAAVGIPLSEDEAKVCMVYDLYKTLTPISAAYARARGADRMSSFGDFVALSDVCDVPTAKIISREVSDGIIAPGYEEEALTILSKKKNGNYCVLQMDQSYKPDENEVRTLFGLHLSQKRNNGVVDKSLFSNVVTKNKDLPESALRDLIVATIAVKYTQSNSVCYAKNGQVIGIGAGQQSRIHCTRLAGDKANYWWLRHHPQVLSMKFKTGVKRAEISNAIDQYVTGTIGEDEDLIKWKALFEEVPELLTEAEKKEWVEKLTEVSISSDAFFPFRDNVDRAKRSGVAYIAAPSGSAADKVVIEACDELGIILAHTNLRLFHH
- method.description: Enzyme Inhibition Assay
- recorded.conditions: 25 °C
Square brackets hold non-standard residues; d marks the D form. Peptide text beside a SMILES is read from it. NMeY = CN[C@@H](Cc1ccc(O)cc1)C(=O)O
parameter.measured: Ki (µM)

Sample answers from the record:
>>> df
                                   compound                                    target  number
0  CCNC(=O)[C@H](Cc1ccc(OC)cc1)NC(=O)[C@H](CCCN=C(N)N)NC(C)=O [RY Analogue, 11] (Ac-Arg-Tyr(Me)-NHEt)  Bifunctional purine biosynthesis protein ATIC (Homo sapiens, UniProt P31939)      87
1  CCNC(=O)[C@H](Cc1ccc(O)cc1)N(C)C(=O)[C@H](CCCN=C(N)N)NC(C)=O [RY Analogue, 16] (Ac-Arg-[NMeY]-NHEt)  Bifunctional purine biosynthesis protein ATIC (Homo sapiens, UniProt P31939)     145
2  CCNC(=O)[C@H](Cc1ccccc1)NC(=O)[C@H](CCCN=C(N)N)NC(C)=O  Bifunctional purine biosynthesis protein ATIC (Homo sapiens, UniProt P31939)     339

P = CCNC(=O)[C@H](Cc1ccc([N+](=O)[O-])cc1)N(C)C(=O)[C@H](CCCN=C(N)N)NC(C)=O
Q = CCNC(=O)[C@H](Cc1ccc(O)cc1)NC(=O)[C@H](CCCN=C(N)N)NC(C)=O [RY Analogue, 8] (Ac-Arg-Tyr-NHEt)
query: Hi team, can someone confirm which has the larger Ki: P or Q ? Thanks. Record your answer as the label of the chosen record.
result: Q

I = CCNC(=O)[C@H](Cc1ccc([N+](=O)[O-])cc1)NC(=O)[C@H](CCCN=C(N)N)NC(C)=O
II = CCNC(=O)[C@H](Cc1ccc(C#N)cc1)NC(=O)[C@H](CCCN=C(N)N)NC(C)=O
query: Hi team, can someone confirm which has the larger Ki: I or II ? Thanks. Record your answer as the label of the chosen record.
result: II
(II: 56 µM, I: 0.685 µM)

P = CCNC(=O)[C@H](Cc1ccc(F)cc1)NC(=O)[C@H](CCCN=C(N)N)NC(C)=O
Q = CCNC(=O)[C@H](Cc1ccc(B(O)O)cc1)NC(=O)[C@H](CCCN=C(N)N)NC(C)=O
query: Hi team, can someone confirm which has the larger Ki: P or Q ? Thanks. Record your answer as the label of the chosen record.
result: P
(P: 135 µM, Q: 59 µM)
